assay-name: One-photon excitation (1PE) photolysis with 365 nm LED, HPLC quantification
Format: physicochemical
test-conditions: 1PE 365 nm LED, lamp intensity differs per compound (Table S1)
readout-name: t90% (time required to consume 90% of the starting material) (s)
Entry rule: numbers only, all in s.

Answered cases to consult:
Cc1cc(COc2cc(CCN)ccc2O)nc2c(C#N)c(O)ccc12.O=C(O)C(F)(F)F | 28.0
COc1cc(-c2cc(COc3cc(CCN)ccc3O)nc3c(C#N)c(O)ccc23)cc(OC)c1OC.O=C(O)C(F)(F)F | 188.7
Cc1ccc(-c2cc(COc3cc(CCN)ccc3O)nc3c(C#N)c(O)ccc23)cc1.O=C(O)C(F)(F)F | 76.7
N#Cc1c(O)ccc2c(N3CCOCC3)cc(COc3cc(CCN)ccc3O)nc12.O=C(O)C(F)(F)F | 23.2

Let's switch to this compound now.
I am curious: what t90% (time required to consume 90% of the starting material) value has been reported for `CCCN(CCc1cccs1)[C@@H]1CCc2c(cccc2OCc2cc(OC)c3ccc(O)c(C#N)c3n2)C1` ? 143.9
